Each recorded value in this set is attributed to ChEMBL document CHEMBL3593181.

What follows is a collection of pKi values obtained with Carbonic anhydrase 9 (Homo sapiens).
Answer as the number alone; pKi is minus log10 of concentration in mol/L.

Here are 4 compounds together with their reported answers.
Req: Specify reported pKi for the compound shown: NS(=O)(=O)c1ccc2nc(NC(=S)NCCNC(=S)Nc3nc4ccc(S(N)(=O)=O)cc4s3)sc2c1
Resp: 8.68

Req: Give me measured pKi, please, for this compound: CSc1nn(CC(=O)Nc2nc3ccc(S(N)(=O)=O)cc3s2)c2ncnc(N)c12
Resp: 8.57

Req: Identify pKi associated with the compound N#Cc1cnn(CC(=O)Nc2nc3ccc(S(N)(=O)=O)cc3s2)c1N
Resp: 6.56

Req: Give reported pKi value for CSc1nn(CC(=O)Nc2nc3ccc(S(N)(=O)=O)cc3s2)c(N)c1C#N
Resp: 6.53

Next compound, pKi to be filled in.
Req: Look up and report measured pKi for this entry: Nn1c(Cc2ccccc2)nnc1SCC(=O)Nc1nc2ccc(S(N)(=O)=O)cc2s1
Resp: 6.61
